# subject.of.test: recombinant human FAP (Homo sapiens (Human), UniProt Q12884)
# Sequence (Q12884 whole entry): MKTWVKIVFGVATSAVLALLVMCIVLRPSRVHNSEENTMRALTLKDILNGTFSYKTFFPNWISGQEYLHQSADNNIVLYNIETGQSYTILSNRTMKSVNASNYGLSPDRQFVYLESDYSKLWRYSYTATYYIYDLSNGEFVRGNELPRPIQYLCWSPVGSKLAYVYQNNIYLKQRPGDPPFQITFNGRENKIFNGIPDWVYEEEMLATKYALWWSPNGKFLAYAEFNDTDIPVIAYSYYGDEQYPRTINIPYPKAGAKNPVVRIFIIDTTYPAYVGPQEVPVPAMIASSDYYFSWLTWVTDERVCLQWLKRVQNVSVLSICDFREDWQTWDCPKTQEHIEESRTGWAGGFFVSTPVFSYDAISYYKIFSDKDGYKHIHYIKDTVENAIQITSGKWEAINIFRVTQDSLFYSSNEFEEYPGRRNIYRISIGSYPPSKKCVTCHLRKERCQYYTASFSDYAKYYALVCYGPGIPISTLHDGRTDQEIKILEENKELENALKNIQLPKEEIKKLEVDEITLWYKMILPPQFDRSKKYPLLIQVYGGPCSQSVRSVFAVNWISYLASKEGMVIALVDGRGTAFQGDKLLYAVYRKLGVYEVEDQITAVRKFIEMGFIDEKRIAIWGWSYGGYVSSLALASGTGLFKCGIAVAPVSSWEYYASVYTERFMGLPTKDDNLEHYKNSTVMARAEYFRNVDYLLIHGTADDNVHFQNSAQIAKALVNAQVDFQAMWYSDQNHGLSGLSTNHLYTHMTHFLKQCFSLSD
# method.description: In vitro enzyme IC50 assay, FAP (Example 10)
# study.conditions: 10 min preincubation at 25° C., Z-Gly-Pro-AMC
# Method: Biological Materials: For the in vitro IC50 determination assays, recombinant human DPPIV, DPP9, FAP, and PREP were purchased from R&D Systems, and DPP8 was from Biomol International. […] The samples were analyzed by reverse-phase HPLC-MS on a Thermo Finnigan LCQ Duo, quantifying the peaks in the resulting base peak chromatograms. Relative cleavage values were determined by comparing the postquench abundance of intact peptides to those in the initial library. […]
Where a SMILES comes first, the peptide text is derived from it.
Label rule met when IC50 is strictly below 60 nM; otherwise label rule not met.

C[C@@H](NC(=O)CNC(=O)CN1CCN(CC(=O)O)CCN(CC(=O)O)CCN(CC(=O)O)CC1)C(=O)N1CCC[C@H]1B(O)O = rule not met

Input: Does the reported IC50 of C[C@@H](NC(=O)c1ccc(NNC(=O)CCCNC(=O)CN2CCN3CCN4CCN(CC2)CC(=O)[O][Gd]([O]C(=O)C3)[O]C(=O)C4)cc1)C(=O)N1CCC[C@H]1B(O)O [Compound 6489Gd, DOTA[Gd]-GABA-HyBz-D-Ala-boroPro] stay below 60 nM?
Output: rule met

Input: Also CC(C)[C@H](NC(=O)CNC(=O)CNC(=O)CN1CCN2CCN(CC(=O)O)CCN(CC1)CC(=O)[O][Cu][O]C(=O)C2)C(=O)N[C@H](C)C(=O)N1CCC[C@H]1B(O)O [Compound 6522CU, DOTA[(Cu(II)]-Gly-Gly-Val-D-Ala-boroPro] (HELM PEPTIDE1{[O=C(O)CN1CCN2CCN(CC(=O)[*:2])CCN(CC1)CC(=O)[O][Cu][O]C(=O)C2].G.G.V.[dA].[OB(O)[C@@H]1CCCN1[*:1]]}$$$$V2.0) ?
Output: rule met
